Experiment: NCI Yeast Anticancer Drug Screen. Data for the sgs1 mgt1 strain (AID 161);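 note: 0% = growth of cultures given vehicle only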
Details: S. cerevisiae sgs1 mgt1 strain, at 50.0 µM
Method: Growth inhibition of yeast strains with defined genetic alterations is measured as a screen for potential anti-cancer activity. Selected strains with alterations in DNA damage repair or cell cycle control were exposed to compounds and growth inhibition was measured relative to vehicle treated controls. The strain used in this assay is sgs1 mgt1
The panel holds about 79,000 compounds, 15% with a hit somewhere; the sample as a whole holds those more often. Calls of active or inactive are those of the source. Cut-off read from the data, not from the text of the source: active = growth inhibition above about 70%; inactive = the rest.
Thanks in advance; please answer with one of these: yes (1) = active, no (0) = inactive

[[record]]
compound = "O=[N+]([O-])c1ccc(-[n+]2ccc3ccccc3c2)c([N+](=O)[O-])c1"
assigned_category = "yes (1)"


**Query** Dear colleague, could you share the recorded outcome for Cc1c(S(C)=O)[n+](=O)c2ccccc2n1[O-] (configuration not stated) when you have a moment?
**Result** no (0)

**Query** Dear colleague, could you share the recorded outcome for O=C(CCSCCC(=O)NNc1ccccc1)NNc1ccccc1 when you have a moment?
**Result** no (0)

**Query** Dear colleague, could you share the recorded outcome for O=C(Nc1cc(Cl)cc(Cl)c1)OCCCl when you have a moment?
**Result** yes (1)

**Query** Dear colleague, could you share the recorded outcome for Nc1c(F)cccc1F when you have a moment?
**Result** no (0)

**Query** Dear colleague, could you share the recorded outcome for S=c1nc(N2CCCCC2)ss1 when you have a moment?
**Result** yes (1)

**Query** Dear colleague, could you share the recorded outcome for CC(C(=O)O)c1c(-c2ccccc2)ccc2ccccc12 (configuration not stated) when you have a moment?
**Result** no (0)

**Query** Dear colleague, could you share the recorded outcome for S=C1Nc2cnc3ccccc3c2SC1c1ccccc1 (configuration not stated) when you have a moment?
**Result** yes (1)

**Query** Dear colleague, could you share the recorded outcome for CNC(=O)OC(C)CN1c2ccccc2Sc2ccccc21 (configuration not stated) when you have a moment?
**Result** yes (1)

**Query** Dear colleague, could you share the recorded outcome for Cn1cc(NC(=O)Nc2cc(C(=O)Nc3cc(C(=O)Nc4ccc5cc(S(=O)(=O)O)cc(S(=O)(=O)O)c5c4)n(C)c3)n(C)c2)cc1C(=O)Nc1cc(C(=O)Nc2ccc3cc(S(=O)(=O)O)cc(S(=O)(=O)O)c3c2)n(C)c1 when you have a moment?
**Result** yes (1)

**Query** Dear colleague, could you share the recorded outcome for O=C1C(c2ccccc2)=[N+]([O-])c2ccccc21 when you have a moment?
**Result** yes (1)

**Query** Dear colleague, could you share the recorded outcome for O=C1C=CC(=O)N1c1cccc(F)c1 when you have a moment?
**Result** yes (1)
